- SYSTEM NAME: SARS-COV-2 RBD extracellular domain expressed with a C-terminal myc-myc-hexahistidine tag (SARS-COV-2 RBD-mmH) (SARS-CoV-2)
- ASSAY DETAILS: SPR Biacore, mAb captured on anti-hFc, RBD-mmH analyte, 37 C
Consider the following binders; for each one, report its kon.
A number alone suffices; assume M⁻¹ s⁻¹.

Lookup: For mAb14286 (antibody, V domains shown) VH: QVQLVQSGAEVKKPGASVKVSCKASGYTFTDYFIHWVRQAPGQGLEWMGWINPTSGGTNYAQKFRGRVTMTRDTSISTAYVELSRLRSDDTALYYCARDLPFYSDTKQFDYWGQGTLVTVSS VL: QSALTQPASVSGYPGQSITISCTGTSSDVGGYNYVSWYQQHPGKAPKLMIFDVSNRPSGVSNRFSGSKSGNTASLTFSGLQAEDEADYYCSSYTSSSTLVFGGGTKLTVLG , what is its reported kon?
Found: 3.38e+06

Lookup: For mAb15151 (antibody, V domains shown) VH: QVQLVESGGGVVQPGRSLRLSCAASGFVFNSYGMHWVRQAPGKGLEWVAVLWYEGSKNYYADSVKGRFTISRDNSKNTLYLQMNSLRAEDTAVYYCARHGSGSFFGYYLDYWGQGTLVTVSS VL: DIQMTQSPSSLSASVGDRVTITCRASHNINDFLNWYQQKPGKAPRLLIYAASSLQSGVPSRFSGSGSGTDFTLTISSLQPEDFATYYCQESYTTPPTFGQGTKLEIKR , what is its reported kon?
Found: 180000

Lookup: For mAb14256 (antibody, V domains shown) VH: QVQLQESGPGLVKPSETLSLTCTVSGGSISSHYWSWIRQPPGKGLEWIGYIYYSGSSNYNPSLKSRVTISVDTSKNQFSLKLNSVTAADTAVYYCARHYDILTGFDWFDPWGQGTLVTVSS VL: QSVLTQPPSVSGAPGQRVTISCTGSSSNIGTHYDVHWYQQLPGTAPKLLIYGNSNRPSGVPDRFSGSKSGTSASLAITGLQAEDEADYYCQSFDNSLTAPYVFGTGTKVTVLG , what is its reported kon?
Found: 1.4e+06
